What follows is literature data on pIC50 for Histone deacetylase 8 (Homo sapiens, UniProt Q9BY41).
pIC50: −log10 of the molar value.
readout label: pIC50

Examples from the recorded data:
>>> data_value("Nc1ccccc1NC(=O)CCCc1cn(CB2C=Cc3ccccc3N2)nn1")
4.72
>>> data_value("O=C(CCCCc1cn(CB2C=Cc3ccccc3N2)nn1)NO")
5.21
>>> data_value("O=C(CCCCCCC(=O)NC[C@H]1CN(c2ccc(N3CCOCC3)c(F)c2)C(=O)O1)NO")
5.95
>>> data_value("O=C(NO)c1ccc(CNC[C@H]2CN(c3ccc(N4CCOCC4)c(F)c3)C(=O)O2)cc1")
6.03
>>> data_value("O=C(CCCc1cn(CB2C=Cc3ccccc3N2)nn1)NO")
5.48

P = Nc1ccccc1NC(=O)c1cn(CB2C=Cc3ccccc3N2)nn1
Q = Cc1cccc2nc(SCc3ccc(C(=O)NO)cc3)n(-c3ccc(Cl)cc3)c(=O)c12
## Input Could you point out whether the larger pIC50 belongs to P or to Q ? Select an item and report its label.
## Output Q
